biological target: MPO (purified from human polynuclear leukocytes) (Homo sapiens, UniProt P05164); construct: purified from human polynuclear leukocytes; purchased Calbiochem/EMD Biosciences; host or cells: human polynuclear leukocytes (natural source); assay: MPO Amplex Red Activity Assay; type: biochemical; settings: Table 1A, 2 μM H2O2, pH 7.4
Sequence (P05164 279-745 limits assumed): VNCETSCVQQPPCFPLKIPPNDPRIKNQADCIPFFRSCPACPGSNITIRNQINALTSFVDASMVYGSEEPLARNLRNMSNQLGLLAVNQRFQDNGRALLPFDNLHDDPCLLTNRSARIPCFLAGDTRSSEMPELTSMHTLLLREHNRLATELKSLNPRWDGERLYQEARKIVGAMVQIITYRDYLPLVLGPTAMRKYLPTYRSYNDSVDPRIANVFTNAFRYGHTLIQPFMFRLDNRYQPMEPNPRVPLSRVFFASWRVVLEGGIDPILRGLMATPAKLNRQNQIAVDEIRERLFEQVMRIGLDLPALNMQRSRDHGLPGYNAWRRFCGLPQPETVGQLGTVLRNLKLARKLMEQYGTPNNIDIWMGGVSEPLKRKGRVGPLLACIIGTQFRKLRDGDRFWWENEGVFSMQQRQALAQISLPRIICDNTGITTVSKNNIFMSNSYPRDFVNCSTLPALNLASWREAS
Sequence (P05164 165-273 limits assumed): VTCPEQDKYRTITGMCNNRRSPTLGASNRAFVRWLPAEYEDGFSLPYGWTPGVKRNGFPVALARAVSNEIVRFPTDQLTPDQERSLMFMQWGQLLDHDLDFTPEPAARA
reportedProperty: MPO kinact/Ki

COc1ccc(-c2cc(=O)[nH]c(=S)n2CC(=O)N[C@@H]2CC[C@H]2N)c(OC)c1 [Example 441]	3260 1/s per M
COc1ccc(-c2cc(=O)[nH]c(=S)n2CCNCCN)c(OC)c1 [Example 381]	1970 1/s per M
NC(=O)Cn1c(-c2cc(F)ccc2OCCO)cc(=O)[nH]c1=S [Example 412]	3980 1/s per M
NC(=O)Cn1c(-c2cccc3c2OCC3)cc(=O)[nH]c1=S [Example 364]	6580 1/s per M
NCCn1c(-c2cc3ccccc3s2)cc(=O)[nH]c1=S [Example 354]	1830 1/s per M
COc1ccc(-c2cc(=O)[nH]c(=S)n2CC(=O)N[C@H](C)CN)c(OC)c1 [Example 401]	4060 1/s per M
CC(=O)OCCOc1ccc(F)cc1-c1cc(=O)[nH]c(=S)n1CC(N)=O [Example 421]	4950 1/s per M
COc1ccc(-c2cc(=O)[nH]c(=S)n2CC(=O)NC[C@H](C)N)c(OC)c1 [Example 396]	10900 1/s per M
O=c1cc(-c2ccc3c(c2)OCCO3)n(CCO)c(=S)[nH]1 [Example 356]	2910 1/s per M
COc1cc(OCCO)ccc1-c1cc(=O)[nH]c(=S)n1CC(N)=O [Example 387]	4720 1/s per M
COc1ccc(OCCO)cc1-c1cc(=O)[nH]c(=S)n1CC(N)=O [Example 422]	4460 1/s per M
COc1ccc(-c2cc(=O)[nH]c(=S)n2CC(=O)NCC(F)(F)CN)c(OC)c1 [Example 443]	7330 1/s per M
COc1ccc(-c2cc(=O)[nH]c(=S)n2CC(=O)NCCN)c(OCCO)c1 [Example 404]	6200 1/s per M
COc1ccc(-c2cc(=O)[nH]c(=S)n2CC(=O)NCCO)c(OC)c1 [Example 385]	3530 1/s per M
COc1ccc(C)cc1-c1cc(=O)[nH]c(=S)n1CC(=O)NCCN [Example 373]	12800 1/s per M
COc1ccc(OC)c(-c2cc(=O)[nH]c(=S)n2CC(=O)NCCN)c1 [Example 370]	9060 1/s per M
NCCCn1c(-c2cc(F)ccc2OCCO)cc(=O)[nH]c1=S [Example 406]	4480 1/s per M
COc1ccc(-c2cc(=O)[nH]c(=S)n2CCNCCO)c(OC)c1 [Example 383]	5230 1/s per M
